# Test system: L1210 leukemia ip in BDF1 mice, survival T/C
# ASSAY_NOTES: NCI In Vivo Anticancer Drug Screen. Data for tumor model L1210 Leukemia (intraperitoneal) in B6D2F1 (BDF1) mice
# MEASUREMENT_PARAMETERS: endpoint: mean survival time; dose: 100.0 mg/kg/injection; schedule: Q04DX002 (ip); vehicle: saline with Tween-80; higher = longer survival
Toxic doses and inconclusive results are not listed.
MEASURED_QUANTITY: T/C

Can you look up the measured T/C of CC1CCCCN1Cc1ccccc1COC(=O)c1ccc([N+](=O)[O-])cc1Cl (stereo not given) for me?
94 % of control

Can you check COc1cc(/C=N\NC(=S)Nc2ccc(S(=O)(=O)N3CCCCC3)cc2)cc(OC)c1OC next?
98 % of control

Can you check N#CCCN(CCCN1CCOCC1)C(=S)Nc1cccc(C(F)(F)F)c1 next?
92 % of control

Can you check O=[N+]([O-])c1ccc2c(c1)S(=O)c1cc([N+](=O)[O-])c(Br)cc1-2 (stereo not given) (tested in a mixture with another compound) next?
96 % of control

Can you check O=C(O)C(O)(c1ccccc1)C1CCCCC1 (stereo not given) next?
91 % of control
